Test system: isolated paced intact rabbit atria
PROTOCOL_SUMMARY: Cardiac depressant (negative inotropic) effects in isolated paced intact rabbit atria
CONDITION_DETAILS: 3 Hz, 30° C., cumulative 10^-9 M to 10^-5 M
MEASURE: IC25 (concentration which produces 25% inhibition of isometric force) (µM)

Consider the following illustrative entries.
* COC(=O)C1=C(C)NC2=C(C(=O)CN(CC(O)COc3ccccc3)C2)C1c1c(F)c(F)c(F)c(F)c1F (centres unmarked) | 4.5
* COC(=O)C1=C(C)NC2=C(C(=O)CN(CC(O)CCc3ccccc3)C2)C1c1c(F)c(F)c(F)c(F)c1F (centres unmarked) | 3

P = COC(=O)C1=C(C)NC2=C(C(=O)CN(CC(O)COc3cccc(C)c3C)C2)C1c1c(F)c(F)cc(F)c1F (centres unmarked)
Q = CCOC(=O)C1=C(C)NC(C)=C(C(=O)OC)C1c1cccc([N+](=O)[O-])c1 (centres unmarked) [nitrendipine, reference compound]
Exercise: compare P and Q ; which one has the greater IC25 (concentration which produces 25% inhibition of isometric force)? Indicate which entry you chose by stating its label.
P
(P: 6 µM, Q: 0.35 µM)

A = COC(=O)C1=C(C)NC2=C(C(=O)CN(CC(O)COc3ccc(OC)cc3)C2)C1c1c(F)c(F)c(F)c(F)c1F (centres unmarked)
B = CCOC(=O)C1=C(C)NC(C)=C(C(=O)OC)C1c1cccc(Cl)c1Cl (centres unmarked) [felodipine, reference compound]
C = COC(=O)C1=C(C)NC2=C(C(=O)CN(CCCOc3ccccc3)C2)C1c1c(F)c(F)c(F)c(F)c1F (centres unmarked)
Let's sort these by IC25 (concentration which produces 25% inhibition of isometric force), smallest first. Go ahead? List the labels in the requested order.
B, C, A

----------
Test system: spontaneously hypertensive rats
PROTOCOL_SUMMARY: Hypotensive in vivo effect: systolic blood pressure of spontaneously hypertensive rats
Set-up: species or system rat
CONDITION_DETAILS: 50 mg/kg oral, 1.5 hours, group of 4 spontaneously hypertensive rats
Recorded measurements of blood pressure (B.P.) reduction at 1.5 hours, one per entry
Value expressed in mmHg; do not type the unit.

* COC(=O)C1=C(C)NC2=C(C(=O)CN(CC(O)COc3ccc(OC)cc3)C2)C1c1c(F)c(F)c(F)c(F)c1F (centres unmarked) [Example 7] | -31

spontaneously hypertensive rats / blood pressure (B.P.) reduction at 1.5 hours / COC(=O)C1=C(C)NC2=C(C(=O)CN(CC(O)CCc3ccccc3)C2)C1c1c(F)c(F)c(F)c(F)c1F (centres unmarked) [Example 10] : value?
-41

Try this compound too: COC(=O)C1=C(C)NC2=C(C(=O)CN(CC(O)COc3cccc(C)c3C)C2)C1c1c(F)c(F)c(F)c(F)c1F (centres unmarked) [Example 2]
-56

What do you have for COC(=O)C1=C(C)NC2=C(C(=O)CN(CC(O)COc3cccc(C)c3C)C2)C1c1c(F)ccc(Cl)c1Cl (centres unmarked) [Example 4] ?
-56

Input COC(=O)C1=C(C)NC2=C(C(=O)CN(CCCOc3ccccc3)C2)C1c1c(F)c(F)c(F)c(F)c1F (centres unmarked) [Example 9]
-43

Would you mind doing COC(=O)C1=C(C)NC2=C(C(=O)CN(CC(O)c3ccccc3)C2)C1c1c(F)c(F)c(F)c(F)c1F (centres unmarked) [Example 11] as well?
-58

Try the compound COC(=O)C1=C(C)NC2=C(C(=O)CN(CC(O)COc3ccccc3)C2)C1c1c(F)c(F)c(F)c(F)c1F (centres unmarked) [Example 6]
-54

Entry COC(=O)C1=C(C)NC2=C(C(=O)CN(CC(O)COc3cccc(C)c3C)C2)C1c1ccccc1C (centres unmarked) [Example 1] please
-30

Same read-out for COC(=O)C1=C(C)NC2=C(C(=O)CN(CC(O)COc3cccc(Cl)c3Cl)C2)C1c1ccccc1C (centres unmarked) [Example 5] ?
-23

Field entry: COC(=O)C1=C(C)NC2=C(C(=O)CN(CC(O)COc3cccc(C)c3C)C2)C1c1cccc(Cl)c1Cl (centres unmarked) [Example 8]
-16

Moving on to COC(=O)C1=C(C)NC2=C(C(=O)CN(CC(O)COc3cccc(C)c3C)C2)C1c1c(F)c(F)cc(F)c1F (centres unmarked) [Example 3]
-25

----------
PROTOCOL_SUMMARY: Cardiac depressant (negative inotropic) effects in isolated paced intact rabbit atria
CONDITION_DETAILS: isolated paced atria, 10^-5 M, read-out: inhibition (of developed isometric force) at the highest concentration
MEASURE: inhibition at 10 µM

Would you mind telling me what inhibition at 10 µM value was observed for NCCCCCCNS(=O)(=O)c1cccc2c(Cl)cccc12 [Example W-7, reference compound] ?
< 20%

----------
Test system: isolated paced intact rabbit atria
PROTOCOL_SUMMARY: Cardiac depressant (negative inotropic) effects in isolated paced intact rabbit atria
CONDITION_DETAILS: 3 Hz, 30° C., cumulative 10^-9 M to 10^-5 M
MEASURE: IC25 (concentration which produces 25% inhibition of isometric force) (µM)

• COC(=O)C1=C(C)NC2=C(C(=O)CN(CC(O)COc3cccc(C)c3C)C2)C1c1cccc(Cl)c1Cl (stereo not shown) [Example 8] = 7
• COc1ccc(CCN(C)CCCC(C#N)(c2ccc(OC)c(OC)c2)C(C)C)cc1OC (stereo not shown) [Verapamil, reference compound] = 0.06
• COC(=O)C1=C(C)NC2=C(C(=O)CN(CC(O)COc3cccc(C)c3C)C2)C1c1c(F)c(F)c(F)c(F)c1F (stereo not shown) [Example 2] = 5
• COC(=O)C1=C(C)NC(C)=C(C(=O)OC)C1c1ccccc1[N+](=O)[O-] [nifedipine, reference compound] = 0.05

----------
Test system: isolated paced intact rabbit atria
PROTOCOL_SUMMARY: Cardiac depressant (negative inotropic) effects in isolated paced intact rabbit atria
CONDITION_DETAILS: 3 Hz, 30° C., cumulative 10^-9 M to 10^-5 M
In this section, each of the molecules is paired with its reported IC25 (concentration which produces 25% inhibition of isometric force).

Solved entries (count: 2):
- COC(=O)C1=C(C)NC2=C(C(=O)CN(CC(O)COc3cccc(C)c3C)C2)C1c1ccccc1C (stereo not drawn): > 10 µM
- COC(=O)C1=C(C)NC2=C(C(=O)CN(CC(O)COc3cccc(C)c3C)C2)C1c1c(F)ccc(Cl)c1Cl (stereo not drawn): > 10 µM

Look up IC25 (concentration which produces 25% inhibition of isometric force): COC(=O)C1=C(C)NC2=C(C(=O)CN(CC(O)COc3cccc(Cl)c3Cl)C2)C1c1ccccc1C (stereo not drawn)
> 10 µM
